Tested on: S. pneumoniae (n = 12)
assay_procedure: MIC broth microdilution at IHMA Europe
Assay type: cell-based
settings: Streptococcus pneumoniae, S. pneumoniae IHMA N° 1979675; read-out: MIC
reported_metric: MIC (µg/mL)
Write the number in µg/mL without appending the unit.

1. CC1(C)S[C@@H]2[C@H](NC(=O)[C@H](N)c3ccccc3)C(=O)N2[C@H]1C(=O)O: 2
2. C[C@@H](O)[C@H]1C(=O)N2C(C(=O)O)=C(SCCNC=N)C[C@H]12: 0.25
3. C[C@H]1COc2c(N3CCN(C)CC3)c(F)cc3c(=O)c(C(=O)O)cn1c23.C[C@H]1COc2c(N3CCN(C)CC3)c(F)cc3c(=O)c(C(=O)O)cn1c23.O: 0.5
4. Cc1[nH]c(C(=O)Nc2nc3c(N4CCOCC4)cc(C(=O)O)cc3s2)c(Cl)c1Cl: 0.5

Consider the additional compound presented here.
Request: Send back S. pneumoniae (n = 12) MIC of Cc1[nH]c(C(=O)Nc2nc3c(N4[C@@H]5CC[C@H]4COC5)cc(C(=O)O)cc3s2)c(Cl)c1Cl only.
Response: 0.25

Data origin, for the record: paper PMC10041525
